Study target: Carbonic anhydrase 2 (Homo sapiens)
Run description: Inhibition of recombinant human carbonic anhydrase II incubated for 30 mins by spectrophotometric analysis
Endpoint name: IC50 (nM)
Give bare numbers, in nM.

Case `NS(=O)(=O)c1ccc(NCCC(=O)N/N=C/c2ccc(-c3ccc(Br)s3)cc2)cc1` , Carbonic anhydrase 2 (Homo sapiens), IC50 recorded as 110

---

Study target: Prostaglandin G/H synthase 2 (Homo sapiens)
Sequence (P35354 whole entry): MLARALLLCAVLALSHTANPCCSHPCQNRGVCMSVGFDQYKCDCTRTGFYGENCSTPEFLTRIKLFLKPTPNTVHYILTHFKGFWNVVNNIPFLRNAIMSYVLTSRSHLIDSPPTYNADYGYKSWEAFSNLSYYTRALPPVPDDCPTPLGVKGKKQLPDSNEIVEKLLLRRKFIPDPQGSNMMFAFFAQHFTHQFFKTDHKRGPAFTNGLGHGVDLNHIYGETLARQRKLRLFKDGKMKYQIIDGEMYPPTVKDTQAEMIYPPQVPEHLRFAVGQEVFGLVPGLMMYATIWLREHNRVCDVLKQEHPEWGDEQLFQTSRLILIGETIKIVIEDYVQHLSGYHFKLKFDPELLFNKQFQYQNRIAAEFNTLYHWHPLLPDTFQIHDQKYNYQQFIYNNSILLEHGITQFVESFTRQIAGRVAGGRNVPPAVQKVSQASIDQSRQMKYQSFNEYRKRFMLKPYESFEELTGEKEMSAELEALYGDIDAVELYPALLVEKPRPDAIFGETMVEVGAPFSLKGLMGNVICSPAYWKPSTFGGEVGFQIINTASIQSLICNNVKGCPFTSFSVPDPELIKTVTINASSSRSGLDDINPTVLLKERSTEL
Run description: Inhibition of human recombinant COX-2
What IC50 was measured for each of the following?
Numbers only, in nM.

O=C(/C=C/c1ccc(Br)cc1)c1cc(-n2cc(CN3C(=O)C(=O)c4ccccc43)nn2)ccc1O :: 1410
COc1ccc(/C=C/C(=O)c2cc(-n3cc(CN4C(=O)C(=O)c5ccccc54)nn3)ccc2O)cc1 :: 1410

Next:
For record `CN(C)c1ccc(/C=C/C(=O)c2cc(-n3cc(CN4C(=O)C(=O)c5ccccc54)nn3)ccc2O)cc1` the listed IC50 is 1410

---

System: Caco-2
Run description: Antiproliferative activity against human Caco-2 cells assessed as reduction in cell growth incubated for 72 hrs by MTT assay
Assay type: functional, cell-based
Test conditions: Caco-2, 72 h
Endpoint name: IC50 (µM)
Numbers only, in µM.

CCn1c(-n2cc(/C=N/N=c3\scc(-c4ccc(Br)cc4)n3-c3ccccc3)c(-c3ccccc3)n2)nc2c1c(=O)n(C)c(=O)n2C :: 18.5

Next:
For record `CCn1c(-n2cc(/C=N/N=C3\SCC(=O)N3c3ccccc3)c(-c3ccccc3)n2)nc2c1c(=O)n(C)c(=O)n2C` the listed IC50 is 18.5

---

What pIC50 was measured for each of the following?
Test system: A549
Run description: Anticancer activity against human A549 cells assessed as reduction in cell viability measured for 72 hrs by MTT assay
Format: functional, cell-based
Test conditions: A549, 72 h
Numbers only, as −log10 of the molar value.

CCn1c(-n2cc(/C=N/N=c3\scc(-c4ccc(Br)cc4)n3-c3ccccc3)c(-c3ccccc3)n2)nc2c1c(=O)n(C)c(=O)n2C :: 4.73

Next:
Case `CCn1c(-n2cc(/C=N/N=C3\SCC(=O)N3c3ccccc3)c(-c3ccccc3)n2)nc2c1c(=O)n(C)c(=O)n2C` , A549, pIC50 recorded as 4.73

---

Run description: Inhibition of soybean lipoxygenase
Design: species or system Glycine max
What pIC50 was measured for each of the following?
Answers are plain numbers, as −log10 of the molar value.

COc1ccc(-c2nnc(N/N=C/c3ccc(F)cc3)nc2-c2ccc(OC)cc2)cc1 :: 3.91

For record `O=C1c2ccccc2C(=O)N1c1nc2cc([N+](=O)[O-])ccc2n1Cc1cccc(-c2ccccc2)c1` the listed pIC50 is 5.99

---

Run description: Inhibition of human recombinant sPLA2-V
What IC50 was measured for each of the following?
Give bare numbers, in nM.

COc1ccnc(Nc2nn3c(SC)c(C#N)c(O)nc3c2C#N)c1 :: 1000

For record `CCOc1cc(C)nc2c(C#N)c(Nc3cc(OC)ccn3)nn12` the listed IC50 is 1700

---

Run description: Inhibition of soybean 15-LOX colorimetric assay
Parameters: species or system Glycine max
What IC50 was measured for each of the following?
Give bare numbers, in µM.

Batch request: IC50 per item, same order as input.
1. COc1ccnc(Nc2nn3c(C)cc(C)nc3c2C#N)c1
2. CC(Cc1ccc(O)c(O)c1)C(C)Cc1ccc(O)c(O)c1 (configuration not stated) [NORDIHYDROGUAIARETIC ACID]

1: 5.6; 2: 8.5

Origin of values: ChEMBL document CHEMBL5543066
